Attribute: MIC
system: B. thailandensis Bt-RHA-BtPore (hyperporinated); test: microbe, parasite or virus in culture; assay type: cell-based; conditions: Burkholderia thailandensis
Bridge positions count the residues as written; N and C are the ends. Square brackets hold non-standard residues; d marks the D form. Peptide text beside a SMILES is read from it. * marks the point of attachment. Ileψ(thiazoline)Cys = CC[C@H](C)[C@H](N)C1=N[C@H](C(=O)*)CS1; dOrn = NCCC[C@@H](N)C(=O)O

The cases that follow already have their MIC on record.
C[C@H]1c2cccc(O)c2C(=O)C2=C(O)[C@]3(O)C(=O)C(C(N)=O)=C(O)[C@@H](N(C)C)[C@@H]3[C@@H](O)[C@@H]21 ... 1.5 µg/mL
NC[C@H]1O[C@H](O[C@H]2[C@H](O)[C@@H](O[C@H]3O[C@H](CO)[C@@H](O)[C@H](N)[C@H]3O)[C@H](N)C[C@@H]2N)[C@H](O)[C@@H](O)[C@@H]1O ... 64 µg/mL

Missing value: MIC, B. thailandensis Bt-RHA-BtPore (hyperporinated), entry `CCn1cc(C(=O)O)c(=O)c2ccc(C)nc21` . Fill in? 24 µg/mL

Lab note: need MIC with B. thailandensis Bt-RHA-BtPore (hyperporinated) for entry `CN(C)[C@@H]1C(O)=C(C(N)=O)C(=O)[C@@]2(O)C(O)=C3C(=O)c4c(O)cccc4[C@@](C)(O)[C@H]3C[C@@H]12` , please look it up. 2 µg/mL

Form field: MIC recorded for CC[C@H](C)[C@H](N)C1=N[C@H](C(=O)N[C@@H](CC(C)C)C(=O)N[C@H](CCC(=O)O)C(=O)N[C@H](C(=O)N[C@H]2CCCCNC(=O)[C@H](CC(N)=O)NC(=O)[C@@H](CC(=O)O)NC(=O)[C@H](Cc3cnc[nH]3)NC(=O)[C@@H](Cc3ccccc3)NC(=O)[C@H]([C@@H](C)CC)NC(=O)[C@@H](CCCN)NC2=O)[C@@H](C)CC)CS1 [Bacitracin] ({Ileψ(thiazoline)Cys}-L[dE]IK[dOrn]I[dF]H[dD]N; lactam 4-C) with B. thailandensis Bt-RHA-BtPore (hyperporinated) (enter value) 1020 µg/mL

Recorded MIC for `Oc1cc(Cl)ccc1Oc1ccc(Cl)cc1Cl` with B. thailandensis Bt-RHA-BtPore (hyperporinated), please? 30 µg/mL

* * *

tested on: A. baumannii Ab-ARA (wild type, empty cassette); test: microbe, parasite or virus in culture; type: cell-based; details: Acinetobacter baumannii, at least three independent measurements, read-out: MIC
Checkbox rule: MIC lower than 3 µg/mL = 1 (yes); MIC not lower than 3 µg/mL = 0 (no).

CO[C@H]1/C=C/O[C@@]2(C)Oc3c(C)c(O)c4c(O)c(c(/C=N/N5CCN(C)CC5)c(O)c4c3C2=O)NC(=O)/C(C)=C\C=C\[C@H](C)[C@H](O)[C@@H](C)[C@@H](O)[C@@H](C)[C@H](OC(C)=O)[C@@H]1C ... 1 (yes)
CN[C@H](CC(C)C)C(=O)N[C@H]1C(=O)N[C@@H](CC(N)=O)C(=O)N[C@H]2C(=O)N[C@H]3C(=O)N[C@H](C(=O)N[C@H](C(=O)O)c4cc(O)cc(O)c4-c4cc3ccc4O)[C@H](O)c3ccc(c(Cl)c3)Oc3cc2cc(c3O[C@@H]2O[C@H](CO)[C@@H](O)[C@H](O)[C@H]2O[C@H]2C[C@](C)(N)[C@H](O)[C@H](C)O2)Oc2ccc(cc2Cl)[C@H]1O ... 0 (no)
C[C@H]1COc2c(N3CCN(C)CC3)c(F)cc3c(=O)c(C(=O)O)cn1c23 ... 1 (yes)
Oc1cc(Cl)ccc1Oc1ccc(Cl)cc1Cl ... 1 (yes)

As a next step, examine the molecule that follows.
# strict comparison: is reported MIC < 3 µg/mL? input = `NCC[C@H](O)C(=O)N[C@@H]1C[C@H](N)[C@@H](O[C@H]2O[C@H](CN)[C@@H](O)[C@H](O)[C@H]2O)[C@H](O)[C@H]1O[C@H]1O[C@H](CO)[C@@H](O)[C@H](N)[C@H]1O` 0 (no)

* * *

tested on: P. aeruginosa PAO1-LAC (wild type, empty cassette); test: microbe, parasite or virus in culture; assay type: cell-based; settings: Pseudomonas aeruginosa, at least three independent measurements, read-out: MIC
Bridge positions count the residues as written; N and C are the ends. Square brackets hold non-standard residues; d marks the D form. Peptide text beside a SMILES is read from it. * marks the point of attachment. Ileψ(thiazoline)Cys = CC[C@H](C)[C@H](N)C1=N[C@H](C(=O)*)CS1; dOrn = NCCC[C@@H](N)C(=O)O
MEASURED_PROPERTY: MIC

CC[C@H](C)[C@H](N)C1=N[C@H](C(=O)N[C@@H](CC(C)C)C(=O)N[C@H](CCC(=O)O)C(=O)N[C@H](C(=O)N[C@H]2CCCCNC(=O)[C@H](CC(N)=O)NC(=O)[C@@H](CC(=O)O)NC(=O)[C@H](Cc3cnc[nH]3)NC(=O)[C@@H](Cc3ccccc3)NC(=O)[C@H]([C@@H](C)CC)NC(=O)[C@@H](CCCN)NC2=O)[C@@H](C)CC)CS1 [Bacitracin] ({Ileψ(thiazoline)Cys}-L[dE]IK[dOrn]I[dF]H[dD]N; lactam 4-C) ... > 1020 µg/mL

Turning now to a further compound:
Would you kindly share the measured MIC for `C[C@@H](O)[C@H]1C(=O)N2C(C(=O)O)=C(S[C@@H]3CN[C@H](C(=O)N(C)C)C3)[C@H](C)[C@H]12` ? 0.5 µg/mL

* * *

tested on: B. thailandensis Bt-RHA-BtPore (hyperporinated); experiment: microbe, parasite or virus in culture; assay type: cell-based; details: Burkholderia thailandensis
MEASURED_PROPERTY: log10 of MIC (log10 of the value in µg/mL)
Lab note - MIC converted to log10 from values in µg/mL.

O=C(N[C@H](CO)[C@H](O)c1ccc([N+](=O)[O-])cc1)C(Cl)Cl ... 0.90
CC[C@H]1OC(=O)[C@H](C)[C@@H](O[C@H]2C[C@@](C)(OC)[C@@H](O)[C@H](C)O2)[C@H](C)[C@@H](O[C@@H]2O[C@H](C)C[C@H](N(C)C)[C@H]2O)[C@](C)(O)C[C@@H](C)CN(C)[C@H](C)[C@@H](O)[C@]1(C)O ... 1.81
C[C@@H](O)[C@H]1C(=O)N2C(C(=O)O)=C(S[C@@H]3CN[C@H](C(=O)N(C)C)C3)[C@H](C)[C@H]12 ... 0.00

Item under review: `NCC[C@H](O)C(=O)N[C@@H]1C[C@H](N)[C@@H](O[C@H]2O[C@H](CN)[C@@H](O)[C@H](O)[C@H]2O)[C@H](O)[C@H]1O[C@H]1O[C@H](CO)[C@@H](O)[C@H](N)[C@H]1O` . Reported log10 of MIC? 2.41

Which log10 of MIC value is on record for CC1(C)S[C@@H]2[C@H](NC(=O)C(C(=O)O)c3ccccc3)C(=O)N2[C@H]1C(=O)O (some centres unmarked) ? 2.41

What measured log10 of MIC goes with `CO[C@H]1/C=C/O[C@@]2(C)Oc3c(C)c(O)c4c(O)c(c(/C=N/N5CCN(C)CC5)c(O)c4c3C2=O)NC(=O)/C(C)=C\C=C\[C@H](C)[C@H](O)[C@@H](C)[C@@H](O)[C@@H](C)[C@H](OC(C)=O)[C@@H]1C` ? 0.90

Look up log10 of MIC for this compound: `C[C@H]1COc2c(N3CCN(C)CC3)c(F)cc3c(=O)c(C(=O)O)cn1c23` 0.00

Requested field: log10 of MIC. Item: `CO[C@@H]1[C@@H](OC(N)=O)[C@@H](O)[C@H](Oc2ccc3c(O)c(NC(=O)c4ccc(O)c(CC=C(C)C)c4)c(=O)oc3c2C)OC1(C)C` 0.60

* * *

system: P. aeruginosa PaΔ3-LAC-EcPore (efflux-deficient, hyperporinated); experiment: microbe, parasite or virus in culture; type: cell-based; details: Pseudomonas aeruginosa; PaΔ3-LAC-EcPore; at least three independent measurements; read-out: MIC
Bridge positions count the residues as written; N and C are the ends. Square brackets hold non-standard residues; d marks the D form. Peptide text beside a SMILES is read from it. * marks the point of attachment. Ileψ(thiazoline)Cys = CC[C@H](C)[C@H](N)C1=N[C@H](C(=O)*)CS1; dOrn = NCCC[C@@H](N)C(=O)O
MEASURED_PROPERTY: MIC (µg/mL)
Please reply with the bare figure in µg/mL and do not write the unit itself.

For orientation, consider the following solved cases.
CC[C@H]1OC(=O)[C@H](C)[C@@H](O[C@H]2C[C@@](C)(OC)[C@@H](O)[C@H](C)O2)[C@H](C)[C@@H](O[C@@H]2O[C@H](C)C[C@H](N(C)C)[C@H]2O)[C@](C)(O)C[C@@H](C)CN(C)[C@H](C)[C@@H](O)[C@]1(C)O [Azithromycin] ... 0.063
Oc1cc(Cl)ccc1Oc1ccc(Cl)cc1Cl [Triclosan] ... 8
C[C@@H](O)[C@H]1C(=O)N2C(C(=O)O)=C(S[C@@H]3CN[C@H](C(=O)N(C)C)C3)[C@H](C)[C@H]12 [Meropenem] ... 0.03

// next item, MIC requested
Given CC[C@H](C)[C@H](N)C1=N[C@H](C(=O)N[C@@H](CC(C)C)C(=O)N[C@H](CCC(=O)O)C(=O)N[C@H](C(=O)N[C@H]2CCCCNC(=O)[C@H](CC(N)=O)NC(=O)[C@@H](CC(=O)O)NC(=O)[C@H](Cc3cnc[nH]3)NC(=O)[C@@H](Cc3ccccc3)NC(=O)[C@H]([C@@H](C)CC)NC(=O)[C@@H](CCCN)NC2=O)[C@@H](C)CC)CS1 [Bacitracin] ({Ileψ(thiazoline)Cys}-L[dE]IK[dOrn]I[dF]H[dD]N; lactam 4-C) , state its recorded MIC. 64
